target: GRIP2_7, Q9C0E4; experiment: holdup assay; design: key: below the threshold = too weak to quantify, mostly under pKd 3.1 to 4; conditions: plain residues with an end cap or a label only (N-terminal biotin on a linker: ado-ado)
Sequence (Q9C0E4 934-1023): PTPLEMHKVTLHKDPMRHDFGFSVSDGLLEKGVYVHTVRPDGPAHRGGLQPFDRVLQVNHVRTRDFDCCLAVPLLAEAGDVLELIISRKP
outcome_measure: pKd

* SAKVRTVTSV [RASL11B, Q9BPW5] | below the threshold
* PDGQCTVTEV [RNF146, Q9NTX7] | 3.56
* HSGYRLNDYV [CLDN14, O95500] | below the threshold
* QGPVETESVV [SLC45A4, Q5BKX6] | below the threshold
* QSPANIYYKV [EFNB1, P52799] | 4.34
* SNAGNTATKA [NOSTRIN, Q8IVI9] | below the threshold
